Values were extracted from the supplement of paper PMC10981050.

tested on: K562; test: cell viability relative to vehicle control; higher = less cytotoxic; settings: 10 µM; SRSF2 genotype: SRSF2 wt/wt;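 further: after 48 h exposure read by CellTiter-Glo luminescence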
Counter-ions that a name gives are not always drawn.
RECORDED METRIC: cell viability (%)
Answers are plain numbers, in %.

Some solved cases for reference:
O=C(NC1CCN(CCCCC2(C(=O)NCC(F)(F)F)c3ccccc3-c3ccccc32)CC1)c1ccccc1-c1ccc(C(F)(F)F)cc1 [Lomitapide] :: 0.4
CC(C)C(C)C(O)C(O)C(C)C1CCC2C3COC(=O)C4CC(O)C(O)CC4(C)C3CCC12C (stereo not given) [Brassinolide] :: 99.3
Cc1nc(NC(=O)N2CCC[C@H]2C(N)=O)sc1-c1ccnc(C(C)(C)C(F)(F)F)c1 :: 90.4
Cc1cccc(-c2[nH]c(C(C)(C)C)nc2-c2ccc3c(c2)OCO3)n1 :: 47.6
OCC(O)C(O)CO (stereo not given) :: 99.9

For each of the items listed, what is its cell viability?
1. O=C(/C=C/c1ccc(O)c(O)c1)O[C@@H]1C[C@](O)(C(=O)O)C[C@@H](O)[C@H]1O
2. CCCCCCOc1cc(C)c(O)c(C)c1C [HTHQ(1-O-Hexyl-2,3,5-trimethylhydroquinone)]
3. CC1(C)[C@@H](O)CC[C@]2(C)[C@H]3C(=O)C=C4[C@@H]5C[C@@](C)(C(=O)O)CC[C@]5(C)CC[C@@]4(C)[C@]3(C)CC[C@@H]12
4. O=C(O)c1ccc(C=C2SC(=S)N(c3cccc(C(F)(F)F)c3)C2=O)cc1
5. O=C1O[C@H]([C@@H](O)CO)C(O)=C1O

Result:
99.4
106
102
95.1
85.8

For each of the items listed, what is its cell viability?
1. CC(C)(Oc1ccc(C2CC2(Cl)Cl)cc1)C(=O)O (stereo not given) [Ciprofibrate]
2. CC(C)(N)C(=O)N[C@H](COCc1ccccc1)C(=O)N1CCC2(CC1)CN(S(C)(=O)=O)c1ccccc12 [Ibutamoren mesylate]
3. C[C@@]12C[C@H](c3ccoc3)O[C@@]13C[C@H](OC3=O)[C@H]1[C@H]2C[C@@H]2C[C@H]1C(=O)O2
4. CC(=O)OCc1ccccc1 [Benzyl acetate]
5. O=C(NC[C@H](O)CN1CCc2ccccc2C1)c1cc(NC2COC2)ncn1

Result:
1. 97.7
2. 90
3. 102
4. 100
5. 95.6

* * *

system: MOLM14; assay: cell viability relative to vehicle control; higher = less cytotoxic; conditions: 10 µM; SRSF2 genotype: SRSF2 wt/wt
Counter-ions that a name gives are not always drawn.
RECORDED METRIC: cell viability
// unit must come after the numeric part

Some solved cases for reference:
Cn1ncc(Cl)c1-c1cc(C(=O)N[C@H](CN)Cc2cccc(F)c2)sc1Cl :: 37.3%
Oc1cc(O)cc(/C=C/c2ccc(O)c(O)c2)c1 :: 79.7%
Cc1cccc(C)c1NC(=O)C1CCCCN1C (stereo not drawn) [Mepivacaine HCl] :: 102%
CCC(CC)n1ccc2c(C(=O)NCc3c(C)cc(C)[nH]c3=O)cc(C#N)cc21 :: 100%
CC1OC(OC2C(OC3CCC4(C)C(CCC5(C)C4CC=C4C6CC(C)(C)CCC6(C(=O)OC6OC(COC7OC(CO)C(O)C(O)C7O)C(O)C(O)C6O)CCC45C)C3(C)CO)OCC(O)C2O)C(O)C(O)C1O (stereo not drawn) [Dipsacoside B] :: 98.3%

For each of the items listed, what is its cell viability?
1. CC1(C)CC[C@]2(C)CC[C@]3(C)C(=CC[C@@H]4[C@@]5(C)CC[C@@H](O)[C@](C)(C(=O)O)[C@@H]5CC[C@]43C)[C@@H]2C1
2. Cc1ncc(NC(=O)c2cccc(C(F)(F)F)c2)cc1-c1cnc(OC2CCOCC2)c(N2CCOCC2)c1

Result:
1: 103%; 2: 40.7%

Ask: Look up cell viability: OC[C@H]1O[C@H](O[C@H]2O[C@H](CO)[C@@H](O)[C@H](O)[C@H]2O)[C@H](O)[C@@H](O)[C@@H]1O [D-(+)-Trehalose dihydrate]
Result: 108%

* * *

tested on: OCI-AML2; assay: cell viability relative to vehicle control; higher = less cytotoxic; conditions: 10 µM; SRSF2 genotype: P95H/wt
RECORDED METRIC: cell viability (%)
One number for each entry, in %.

C[C@@H](c1ncncc1F)[C@](O)(Cn1cncn1)c1ccc(F)cc1F :: 104
CN(C)C(=O)c1cc2cnc(Nc3ccc(N4CCNCC4)cn3)nc2n1C1CCCC1 :: 62
COc1ccc(-c2coc3cc(O)cc(O)c3c2=O)cc1 :: 82.5

For each of the items listed, what is its cell viability?
1. Cn1cc(-c2ccc3ncc(Cc4ccc5ncccc5c4)n3n2)cn1
2. C/C=C(/C)C(=O)O[C@H]1[C@@H](OC(C)=O)c2c(ccc3ccc(=O)oc23)OC1(C)C [(+)-Praeruptorin A]
3. CCN(CC)CC(O)CNc1ccc(NCC2CO2)c2c1C(=O)c1ccccc1C2=O (stereo not drawn)
4. CCCCCC(O)C=CC1C(O)CC(=O)C1CCCCCCC(=O)O (stereo not drawn)
5. CCOC(=O)C1=C(C)NC(C)=C(C(=O)OC)C1c1cccc(Cl)c1Cl (stereo not drawn)

Result:
1. 72.5
2. 90.3
3. 0.66
4. 80.3
5. 78.9

* * *

test system: MOLM14; experiment: cell viability relative to vehicle control; higher = less cytotoxic; settings: 10 µM; SRSF2 genotype: SRSF2 P95H/wt
Kindly state cell viability for each of the entries shown.
Numbers only, in %.

Some solved cases for reference:
COc1ccc(-n2nc(C(N)=O)c3c2C(=O)N(c2ccc(N4CCCCC4=O)cc2)CC3)cc1 :: 107
O=C(O)c1ccc(Br)c(O)c1 [4-Bromo-3-hydroxybenzoic acid] :: 100
COc1cc([C@H]2OC[C@H]3[C@@H]2CO[C@@H]3c2ccc(O[C@@H]3O[C@H](CO)[C@@H](O)[C@H](O)[C@H]3O)c(OC)c2)ccc1O[C@@H]1O[C@H](CO)[C@@H](O)[C@H](O)[C@H]1O [Pinoresinol diglucoside] :: 105
CC(C)C(C(=O)O)N1C(=O)C(=Cc2ccc(Br)cc2)SC1=S (stereo not given) :: 100

For the next question, use this compound.
Ask: Look up cell viability: "Cc1ccccc1CN1C2=NCCN2C(=O)C2=C1CCN(Cc1ccccc1)C2"
Result: 103

* * *

tested on: MARIMO; experiment: cell viability relative to vehicle control; higher = less cytotoxic; conditions: 10 µM; SRSF2 genotype: SRSF2 wt/wt
Structures can show the parent of a compound that is named as a salt.
RECORDED METRIC: cell viability (%)
Answers are plain numbers, in %.

Some solved cases for reference:
COc1cc(O)c2c(=O)c(O[C@@H]3O[C@H](CO)[C@@H](O)[C@H](O)[C@H]3O)c(-c3ccc(O[C@@H]4O[C@H](CO)[C@@H](O)[C@H](O)[C@H]4O)cc3)oc2c1 [Complanatuside] :: 104
CC(=O)O[C@@H]1C[C@H](O)[C@@]23CO[C@@H](O)[C@]1(C)[C@@H]2C[C@@H](O)[C@]1(C)[C@@H]3C(=O)[C@H](OC(C)=O)[C@@]2(C)[C@H](c3ccoc3)C[C@H]3O[C@]321 [Toosendanin] :: 34.2
O=C(c1ccc(/C=C/c2n[nH]c3ccccc23)cc1)N1CCNCC1 :: 36.2
CC(C)(Oc1ccc(Cl)cc1)C(=O)OCCOC(=O)c1cccnc1 [Etofibrate] :: 100
Nc1ncnc2c1ncn2C1OC(COP(=O)(O)OP(=O)(O)O)C(O)C1O (centres undefined) :: 90.7
O=C1Cc2c([nH]c3ccc(Br)cc23)-c2ncccc2N1 [1-Azakenpaullone] :: 127
CCn1cc(C(=O)O)c(=O)c2cc(F)c(N3CCN(C)CC3)cc21 [Pefloxacin mesylate] :: 100
O=C(NO)c1cccc(C(=O)NCCc2ccccc2)c1 :: 86.8
CC(C)C[C@H](NC(=O)CNC(=O)c1cc(Cl)ccc1Cl)B1OC(=O)CC(CC(=O)O)(C(=O)O)O1 (some centres undefined) [Ixazomib Citrate (MLN9708)] :: 2.45
CN(C)CCOc1ccc(/C(=C(/CCCl)c2ccccc2)c2ccccc2)cc1 [Toremifene Citrate (Fareston, Acapodene)] :: 65.5

For each of the items listed, what is its cell viability?
1. O=C1NC(=O)/C(=C/c2cccc(C(F)(F)F)c2)S1
2. Nc1nc(NC2CC2)cc(-c2cccc(Cl)c2Cl)n1

Result:
1. 94.9
2. 38

For each of the items listed, what is its cell viability?
1. CC(=O)OCCc1ccc(O)c(O)c1 [Hydroxytyrosol Acetate]
2. C=C(C)C1CCC2(C)CCC(=O)C(C)=C2C1 (centres undefined)
3. COc1cc2nc(N(C)CCCNC(=O)C3CCCO3)nc(N)c2cc1OC (centres undefined) [Alfuzosin hydrochloride (Uroxatral)]
4. O=S1(=O)CCN(CN2CCS(=O)(=O)NC2)CN1 [Taurolidine]
5. C=CC(=O)Nc1cccc(Sc2nc(Nc3ccc(N4CCN(C)CC4)cc3)ncc2Cl)c1
6. O=CO [Formate]

Result:
[98.6, 100, 98.1, 111, 9.17, 104]

Ask: Look up cell viability: "Cc1nc(N)sc1-c1ccnc(Nc2ccc(N3CCOCC3)cc2)n1"
Result: 44.3
